Values compiled from the Human Domainome abundance scans (Beltran et al. 2025).

B1: DnaJ homolog subfamily C member 5, residues 16 to 77; numbered along this chain, Q9H3Z4 (parent)
chain: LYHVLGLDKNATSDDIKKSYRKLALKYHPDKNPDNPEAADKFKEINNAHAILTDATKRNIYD

- Variants of: B1
- assay-text: abundance fitness (aPCA) (normalised: wild type 0, dead -1); higher = more abundant; growth selection in yeast, the domain comes from the species named
- assay-context: Homo sapiens
Recorded abundance fitness values for a group of variants are listed next.

| sequence-record | abundance fitness |
| --- | --- |
| LYHVLGLDHNATSDDIKKSYRKLALKYHPDKNPDNPEAADKFKEINNAHAILTDATKRNIYD [K9H] | -0.341 |
| LYHVLGLDKNATSDDIKKSYRKLAWKYHPDKNPDNPEAADKFKEINNAHAILTDATKRNIYD [L25W] | -0.346 |
| LYHVLGLDKNATSDDIKKSYRKLALKYHPDKNPDNPEAADKFKEITNAHAILTDATKRNIYD [N46T] | 0.256 |
| LYHVLGLDKNATSDDIKKSYRKLALKYHPDKNPDNPEAADKFKEINNAHAILTDATKRNIYT [D62T] | -0.894 |
| LYHVLGLDKNATSDDIKKSYRKLALKYHPDKNPDNPEAADKFKEINNAHAILTDSTKRNIYD [A55S] | -0.135 |
| LYHVLGLDKNATSDDIAKSYRKLALKYHPDKNPDNPEAADKFKEINNAHAILTDATKRNIYD [K17A] | 0.048 |
| LYHVLGLDKNATSDDIKKSYRKLALKYHPDKNPDNPEAADKFKEINNAHAILTDATLRNIYD [K57L] | -0.399 |
| LYHVLGLDKNATSDDIKKSYRKLALKYHPDKNPDNPEAADKFKEINNAHAILTDAEKRNIYD [T56E] | 0.097 |
| LYHVLGLDKNATSDDIKKSYRKLALKYHPDKNPDNPEAADKFKEICNAHAILTDATKRNIYD [N46C] | 0.174 |
| LYHVLGLDKNATSDDIKKSYRKLALKYHPDKNPDNPEAAIKFKEINNAHAILTDATKRNIYD [D40I] | 0.224 |
| LYMVLGLDKNATSDDIKKSYRKLALKYHPDKNPDNPEAADKFKEINNAHAILTDATKRNIYD [H3M] | -0.153 |
| LYHVLGLDKNATSDDIKKSYRKLALKYHPDKNPDNPEAAWKFKEINNAHAILTDATKRNIYD [D40W] | 0.046 |
| LYHVLGLDKNATSDDIKKSYRKLALKYHPDKNPDNPEAADKFKEINNHHAILTDATKRNIYD [A48H] | -0.477 |
| LYCVLGLDKNATSDDIKKSYRKLALKYHPDKNPDNPEAADKFKEINNAHAILTDATKRNIYD [H3C] | -0.148 |
| LYHVLGLDKNATCDDIKKSYRKLALKYHPDKNPDNPEAADKFKEINNAHAILTDATKRNIYD [S13C] | -0.215 |
| LYHVLGLDKNATSVDIKKSYRKLALKYHPDKNPDNPEAADKFKEINNAHAILTDATKRNIYD [D14V] | -0.341 |
| LYHVLGLDKNATSDDIKKSYRKLALKYHPDKNPDNPEAADKFKEINNAHAILTDASKRNIYD [T56S] | -0.15 |
| LYHVLGLDKNATSDDIKKSYRKLALKYHNDKNPDNPEAADKFKEINNAHAILTDATKRNIYD [P29N] | -0.278 |
| LYHVLGLDKNATSDDIKKSYRKLALKYHPDKNPDNPEAADKFKEINNAHAILTDATKRRIYD [N59R] | -0.107 |
| LYHVLGLDKNATSDDIKKSYRKLALKYHPDKNPDWPEAADKFKEINNAHAILTDATKRNIYD [N35W] | -0.317 |
| LYHVLGLDKNATSDDIKKSYRKLALKYHPDKNPDNPEALDKFKEINNAHAILTDATKRNIYD [A39L] | 0.014 |
| FYHVLGLDKNATSDDIKKSYRKLALKYHPDKNPDNPEAADKFKEINNAHAILTDATKRNIYD [L1F] | 0.197 |
| LYHVLGLDKNATSDDKKKSYRKLALKYHPDKNPDNPEAADKFKEINNAHAILTDATKRNIYD [I16K] | -0.45 |
| LYHVLGLDKNATSDDIKKSYRKLALKYHPDKNPDNPEAADKFKEINNAHAILTDATKCNIYD [R58C] | -0.442 |
| LYHVLGLDKAATSDDIKKSYRKLALKYHPDKNPDNPEAADKFKEINNAHAILTDATKRNIYD [N10A] | -0.293 |
| LYHVLGLDKNATSDDIKKSYRKLALKYHPDKNPDNPEAADKFKEINNAHAILTDATKRNIYW [D62W] | -0.546 |
| LYHVLGLDKNATSDDIKKSYRKLALKYHPDKNPDQPEAADKFKEINNAHAILTDATKRNIYD [N35Q] | -0.265 |
| LYHVLGLDKNATSDDIKKSYRKLALKYHPDKNPDNPEAADKFKEINNAHAILTDATKRGIYD [N59G] | 0.101 |
| LYHVLGLDKNATSDDIKKSYRKLALKYHPDKNPDNPEAADKFKEINNAHAILTDARKRNIYD [T56R] | -0.246 |
| LYHVLMLDKNATSDDIKKSYRKLALKYHPDKNPDNPEAADKFKEINNAHAILTDATKRNIYD [G6M] | -0.655 |
| LYHVLGLDGNATSDDIKKSYRKLALKYHPDKNPDNPEAADKFKEINNAHAILTDATKRNIYD [K9G] | -0.215 |
| LYHVLGLDKNATSDDIKKSYRKSALKYHPDKNPDNPEAADKFKEINNAHAILTDATKRNIYD [L23S] | -0.423 |
| LYHVLGLDKNATSDDIKKSYRKLALKYHPDKNYDNPEAADKFKEINNAHAILTDATKRNIYD [P33Y] | -0.34 |
| LYHVLGLDKNATSDDIKKSYRKLALKYHPDKNPDNPEAADKFKEINNAHAILTDITKRNIYD [A55I] | -0.406 |
| LYHVLGLDKNATSDDIKKSYRKLALKYHPDKNPDNPEAADKFMEINNAHAILTDATKRNIYD [K43M] | 0.382 |
| LYHVLGLDKNATSDDIGKSYRKLALKYHPDKNPDNPEAADKFKEINNAHAILTDATKRNIYD [K17G] | -0.251 |
| LYHVLGIDKNATSDDIKKSYRKLALKYHPDKNPDNPEAADKFKEINNAHAILTDATKRNIYD [L7I] | -0.477 |
| LYHVLGLDKNATSDDIKKSYRKLALKYHPDKNPDNPEAADKMKEINNAHAILTDATKRNIYD [F42M] | 0.223 |
| LYHVLGLDKNATSDDIKKSYRKLALKYHIDKNPDNPEAADKFKEINNAHAILTDATKRNIYD [P29I] | -0.57 |
| LYHVLGLDKNATSDDIKSSYRKLALKYHPDKNPDNPEAADKFKEINNAHAILTDATKRNIYD [K18S] | 0.04 |
| LYHVLGLDKNATSDDIKKSYRKLALKYHPDKNPDNPEAADKFKEINNEHAILTDATKRNIYD [A48E] | -0.387 |
| LYHVLGLDANATSDDIKKSYRKLALKYHPDKNPDNPEAADKFKEINNAHAILTDATKRNIYD [K9A] | 0.077 |
